target: MA3706 (Methanosarcina acetivorans, UniProt Q8TJS1)
Sequence (Q8TJS1 whole entry): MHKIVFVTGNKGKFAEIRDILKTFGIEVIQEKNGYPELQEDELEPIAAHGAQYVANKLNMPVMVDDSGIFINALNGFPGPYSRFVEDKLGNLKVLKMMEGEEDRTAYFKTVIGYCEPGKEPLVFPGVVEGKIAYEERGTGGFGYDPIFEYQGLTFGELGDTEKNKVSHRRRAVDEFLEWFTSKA
pKd: −log10 of the molar value.
ASSAY_READOUT: pKd

1) O=P(O)(O)OP(=O)(O)OP(=O)(O)OC[C@H]1O[C@@H](n2cnc3c(O)ncnc32)[C@H](O)[C@@H]1O
5.11
